Recorded values, source patent US20260015350A1.

# Tested on: KRas^G12D (Homo sapiens, UniProt P01116, G12D)
# Construct: Biotinylated KRas (corresponding to amino acids 1-169, produced at Accelegan Inc.); biotin (biotinylated); purchased Accelegan Inc
# Sequence (P01116 1-169 isoform P01116-2 G12D): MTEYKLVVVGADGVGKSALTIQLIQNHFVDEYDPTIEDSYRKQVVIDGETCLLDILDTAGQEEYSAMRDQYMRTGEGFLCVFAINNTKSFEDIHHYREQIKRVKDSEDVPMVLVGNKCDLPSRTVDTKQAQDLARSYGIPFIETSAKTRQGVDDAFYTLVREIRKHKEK
# Assay name: KRas binding assay (TR-FRET tracer displacement), KRas G12D
Reported metric: IC50 (nM)

Below: 5 molecules and their reported IC50.
Molecule	IC50, nM
Cc1c(Cl)cc2[nH]ncc2c1-c1ncc2c(N3CCC[C@]4(C3)NC(=O)NC4=O)nc(OCC34CCCN3CCC4)nc2c1F	2200
CCc1c(F)ccc2cc(O)cc(-c3ncc4c(N5CC6CCC(COC(=O)N(C)C)(C6)C5)nc(OC[C@@]56CCCN5C[C@H](F)C6)nc4c3F)c12 (some centres unmarked)	120
CCc1c(F)ccc2cc(O)cc(-c3ncc4c(N5CCCn6nc(S(=O)(=O)NC)cc6C5)nc(OC[C@@]56CCCN5C[C@H](F)C6)nc4c3F)c12	2
CCc1c(F)ccc2cc(O)cc(-c3ncc4c(NCc5cc(C(=O)N(C)C)n(C(F)F)n5)nc(OC[C@@]56CCCN5C[C@H](F)C6)nc4c3F)c12	3
CCc1c(F)ccc2cc(O)cc(-c3ncc4c(N5CCC(C)(C)SC(C)(C)C5)nc(OC[C@@]56CCCN5C[C@H](F)C6)nc4c3F)c12	98800

I = CCc1c(F)ccc2cc(O)cc(-c3ncc4c(N5CCC6CNC(=O)NC6C5)nc(OC[C@@]56CCCN5C[C@H](F)C6)nc4c3F)c12 (some centres unmarked)
II = CCc1c(F)ccc2cc(O)cc(-c3ncc4c(N5CCCC6(CCCCO6)C5)nc(OC[C@@]56CCCN5C[C@H](F)C6)nc4c3F)c12 (some centres unmarked)
III = CCc1c(F)ccc2cc(O)cc(-c3ncc4c(N5C[C@@H]6[C@@H](C(F)(F)F)C[C@]6(CO)C5)nc(OC[C@@]56CCCN5C[C@H](F)C6)nc4c3F)c12
IV = CCc1c(F)ccc2cc(O)cc(-c3ncc4c(N5CCC[C@@](C)(O)C5)nc(N5CC(C)(N)C5)nc4c3F)c12
V = CN(C)C(=O)n1cc(CNc2nc(OC[C@@]34CCCN3C[C@H](F)C4)nc3c(F)c(-c4cc(O)cc5ccc(F)c(Cl)c45)ncc23)c(NC(=O)[C@H]2C[C@H](O)C2)n1
Enquiry: hey, can you rank those molecules up there by IC50? biggest number first please A complete answer lists every label in the requested sequence.
Return: III, I, II, IV, V

a = CCc1c(F)ccc2cc(O)cc(-c3ncc4c(N5CCC6CCCC5C6)nc(OC[C@@]56CCCN5C[C@H](F)C6)nc4c3F)c12 (some centres unmarked)
b = C[C@@H]1C[C@@H]1c1c(Cl)cc(O)cc1-c1ncc2c(N3CCCC4(CNS(=O)(=O)N4)C3)nc(OC[C@@]34CCCN3C[C@H](F)C4)nc2c1F (stereo in doubt)
c = CCc1c(F)ccc2cc(O)cc(-c3ncc4c(N5CCCC6(C5)NC(=O)NC6=O)nc(N5CC(N)C5)nc4c3F)c12 (centres unmarked)
d = O[C@@H]1C[C@H]2C[C@@H]1CN(c1nc(OC[C@@]34CCCN3C[C@H](F)C4)nc3c(F)c(-c4cccc5cc(C(F)F)ccc45)ncc13)C2
Enquiry: Arrange items by their IC50 values in increasing order. # the answer lists labels in the order requested
Return: b, c, a, d
(b: 2 nM, c: 8 nM, a: 810 nM, d: 66900 nM)

P = CCc1c(F)ccc2cc(O)cc(-c3ncc4c(N5CCCC(C6CCNC6=O)C5)nc(OC[C@@]56CCCN5C[C@H](F)C6)nc4c3F)c12 (single isomer, unassigned) [Example 618]
Q = CCc1c(F)ccc2cc(O)cc(-c3ncc4c(N5CCOCC(P(C)(C)=O)C5)nc(OC[C@@]56CCCN5C[C@H](F)C6)nc4c3F)c12 (some centres unmarked)
Enquiry: Identify the item whose IC50 is the smaller number: P or Q Kindly state the label of the option you pick.
Return: Q
(Q: 65 nM, P: 644 nM)
